tested on: AF/AFL patients; assay: EURIDIS and ADONIS post hoc analysis: adverse events and ECG changes by timing of amiodarone stop; type: in vivo, human; conditions: A stopped more than 2 days before randomization; n = 35; unit assumed
PARAMETER_MEASURED: QTc-Fridericia > or = 500 msec (%)
Report only the number, with the unit % understood.

Look up and state reported QTc-Fridericia > or = 500 msec for CCCCc1oc2ccc(NS(C)(=O)=O)cc2c1C(=O)c1ccc(OCCCN(CCCC)CCCC)cc1
14.3
